# Experimental Target: T1, RXR interacting protein, RB204 (human, UniProt O75064 240-1496, limits assumed)
# T1 construct: Prey clone from a two-hybrid cDNA library (human bone and cartilage cells) in a vector derived from pJG4-5
# T1 sequence: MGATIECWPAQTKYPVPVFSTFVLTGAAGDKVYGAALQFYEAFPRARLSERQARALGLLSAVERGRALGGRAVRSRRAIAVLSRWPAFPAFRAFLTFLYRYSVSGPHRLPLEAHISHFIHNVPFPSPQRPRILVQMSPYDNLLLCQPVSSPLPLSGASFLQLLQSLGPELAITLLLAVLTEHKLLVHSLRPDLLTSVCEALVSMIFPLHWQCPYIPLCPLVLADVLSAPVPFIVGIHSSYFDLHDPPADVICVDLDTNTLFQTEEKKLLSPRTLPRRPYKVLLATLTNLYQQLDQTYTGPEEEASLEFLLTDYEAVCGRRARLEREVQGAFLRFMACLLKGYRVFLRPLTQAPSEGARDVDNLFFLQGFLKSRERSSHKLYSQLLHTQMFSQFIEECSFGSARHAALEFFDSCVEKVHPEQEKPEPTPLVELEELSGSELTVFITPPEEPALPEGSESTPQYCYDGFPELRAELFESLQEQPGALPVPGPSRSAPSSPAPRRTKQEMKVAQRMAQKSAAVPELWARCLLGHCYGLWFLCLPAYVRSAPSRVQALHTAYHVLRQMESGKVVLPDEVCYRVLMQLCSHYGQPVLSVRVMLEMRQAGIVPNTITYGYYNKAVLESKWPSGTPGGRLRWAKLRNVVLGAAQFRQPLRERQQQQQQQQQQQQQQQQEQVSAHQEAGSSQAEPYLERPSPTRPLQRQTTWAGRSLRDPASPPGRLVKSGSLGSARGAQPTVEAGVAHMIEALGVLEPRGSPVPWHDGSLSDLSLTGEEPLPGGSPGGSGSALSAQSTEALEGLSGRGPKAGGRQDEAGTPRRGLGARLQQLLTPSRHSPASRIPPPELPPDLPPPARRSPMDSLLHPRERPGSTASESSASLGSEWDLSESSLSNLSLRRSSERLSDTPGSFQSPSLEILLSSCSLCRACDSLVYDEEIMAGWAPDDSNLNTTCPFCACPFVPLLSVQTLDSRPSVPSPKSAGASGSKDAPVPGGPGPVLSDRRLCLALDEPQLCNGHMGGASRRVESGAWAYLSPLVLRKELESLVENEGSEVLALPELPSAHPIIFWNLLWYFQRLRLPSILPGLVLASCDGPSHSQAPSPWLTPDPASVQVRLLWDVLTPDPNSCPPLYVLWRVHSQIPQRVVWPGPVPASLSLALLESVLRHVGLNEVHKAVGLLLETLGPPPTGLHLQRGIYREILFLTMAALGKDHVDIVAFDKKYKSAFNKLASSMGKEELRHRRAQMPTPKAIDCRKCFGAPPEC
# Experimental Protocol: two-hybrid, directed analysis against a panel of nuclear hormone receptors
# Experimental: Screening was performed as per standard protocols (Golemis et al., Current protocols in molecular biology, 20.0.1,1999). […] RB204 interacts weakly with ERa in the presence of estradiol. Sequence analysis identified an LXXLL nuclear hormone interaction motif within the RB204 open reading frame.

Binder	binding result
PPARa (receptor, UniProt Q07869 167-468, looked up, Member of the panel of nuclear hormone receptors in the directed two-hybrid analysis; the construct is not described) SHNAIRFGRMPRSEKAKLKAEILTCEHDIEDSETADLKSLAKRIYEAYLKNFNMNKVKARVILSGKASNNPPFVIHDMETLCMAEKTLVAKLVANGIQNKEAEVRIFHCCQCTSVETVTELTEFAKAIPGFANLDLNDQVTLLKYGVYEAIFAMLSSVMNKDGMLVAYGNGFITREFLKSLRKPFCDIMEPKFDFAMKFNALELDDSDISLFVAAIICCGDRPGLLNVGHIEKMQEGIVHVLRLHLQSNHPDDIFLFPKLLQKMADLRQLVTEHAQLVQIIKKTESDAALHPLLQEIYRDMY	no binding
HNF4g (receptor, UniProt Q14541 99-408, looked up, Member of the panel of nuclear hormone receptors in the directed two-hybrid analysis; the construct is not described) SNIPSINTLAQAEVRSRQISVSSPGSSTDINVKKIASIGDVCESMKQQLLVLVEWAKYIPAFCELPLDDQVALLRAHAGEHLLLGATKRSMMYKDILLLGNNYVIHRNSCEVEISRVANRVLDELVRPFQEIQIDDNEYACLKAIVFFDPDAKGLSDPVKIKNMRFQVQIGLEDYINDRQYDSRGRFGELLLLLPTLQSITWQMIEQIQFVKLFGMVKIDNLLQEMLLGGASNDGSHLHHPMHPHLSQDPLTGQTILLGPMSTLVHADQISTPETPLPSPPQGSGQEQYKIAANQASVISHQHLSKQKQL	no binding
PPARd (receptor, UniProt Q03181 139-441, looked up, Member of the panel of nuclear hormone receptors in the directed two-hybrid analysis; the construct is not described) SHNAIRFGRMPEAEKRKLVAGLTANEGSQYNPQVADLKAFSKHIYNAYLKNFNMTKKKARSILTGKASHTAPFVIHDIETLWQAEKGLVWKQLVNGLPPYKEISVHVFYRCQCTTVETVRELTEFAKSIPSFSSLFLNDQVTLLKYGVHEAIFAMLASIVNKDGLLVANGSGFVTREFLRSLRKPFSDIIEPKFEFAVKFNALELDDSDLALFIAAIILCGDRPGLMNVPRVEAIQDTILRALEFHLQANHPDAQYLFPKLLQKMADLRQLVTEHAQMMQRIKKTETETSLHPLLQEIYKDMY	no binding
